Give normalized growth for every item shown.
assay: chemical genetic growth profiling, strain panel (AID 1159580);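 also: tested at 20 µM; growth read once vehicle control cultures reached saturation at 30 °C; 1 = growth at the plate median or of vehicle wells; lower values mean less growth of the strain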; conditions: S. cerevisiae deletion strains, growth OD, locus YER016W, strain bim1, stronger effect = lower value
Hit rate of the full screen: of about 5,500 compounds, about 2,000 (36%) were called active. Not shown: some 18% with an inconclusive outcome. Some of the results follow.

Looking up C[C@]12CCC3c4ccc(OS(=O)(=O)O)cc4CCC3C1CCC2=O (stereo partly specified) , I found its normalized growth recorded as 0.962 (inactive)

Looking up CCOC(=O)c1ccc(N)cc1 , I found its normalized growth recorded as 0.972 (inactive)

Looking up COC(=O)[C@H]1[C@H]2C[C@@H]3c4[nH]c5cc(OC)ccc5c4CCN3C[C@H]2C[C@@H](OC(=O)c2cc(OC)c(OC)c(OC)c2)[C@@H]1OC , I found its normalized growth recorded as 1 (inactive)

Working through the 3 molecules below one at a time, give normalized growth for each.
1. CCOP(=S)(OCC)Oc1ccc2c(C)c(Cl)c(=O)oc2c1
2. OC/C=C/c1ccc(O)c(O)c1
3. Oc1ccc(/C=C/c2cc(O)cc(O)c2)cc1

0.97 (inactive)
0.992 (inactive)
0.994 (inactive)

----------
Give normalized growth for every item shown.
assay: chemical genetic growth profiling, strain panel (AID 1159580); settings: S. cerevisiae deletion strains, growth OD, locus YPL256C, strain CLN2, stronger effect = lower value
The whole screen tested about 5,500 compounds, of which about 2,000 (36%) were called active. Not shown: some 18% with an inconclusive outcome. The list shows a part of the results.
Answers are plain numbers.

Recorded normalized growth, per entry:
Looking up COc1cc(C)c2c(c1C=O)Oc1c(c(C)c(O)c3c1C(O)OC3=O)OC2=O (centres undefined) , I found its normalized growth recorded as 0.974

Looking up COc1cc(C(=O)Oc2c(Cl)cc(Cl)cc2C=Nc2cccc([N+](=O)[O-])c2)cc(OC)c1OC , I found its normalized growth recorded as 0.481

Looking up O=c1ccn([C@@H]2O[C@H](COP(=O)(O)OP(=O)(O)OP(=O)(O)O)[C@@H](O)[C@H]2O)c(=O)[nH]1 , I found its normalized growth recorded as 1.03

Kindly review the next compound as well.
Looking up C=CC1=C(C)/C(=C/c2[nH]c(Cc3[nH]c(/C=C4\NC(=O)C(C)=C4C=C)c(C)c3CCC(=O)O)c(CCC(=O)O)c2C)NC1=O , I found its normalized growth recorded as 1.06

----------
assay: chemical genetic growth profiling, strain panel (AID 1159580); conditions: S. cerevisiae deletion strains, growth OD, locus YGL078C, strain dbp3, stronger effect = lower value
The whole screen tested about 5,500 compounds, of which about 2,000 (36%) were called active. Not shown: some 18% with an inconclusive outcome. Some of the results follow.
TEST_READOUT: normalized growth

Recorded normalized growth, per entry:
Looking up CC12CCC(CC1)C(C)(C)O2 , I found its normalized growth recorded as 1.03 (inactive)

Looking up CC(C)C1=CC2=CCC3[C@](C)(CCC[C@]3(C)C(=O)O)C2CC1 (some centres undefined) , I found its normalized growth recorded as 0.978 (inactive)

Working through the 2 compounds below one at a time, give normalized growth for each.
1. COc1cc(C(=O)O)c(O)c2c1OCO2
2. C=CCc1cc(OC)c2c(c1OC)OCO2

["1.01 (inactive)", "0.959 (inactive)"]

----------
experiment: chemical genetic growth profiling, strain panel (AID 1159580); conditions: S. cerevisiae deletion strains, growth OD, locus YPL106C, strain sse1, stronger effect = lower value
Hit rate of the full screen: of about 5,500 compounds, about 2,000 (36%) were called active. About 18% were inconclusive and are not listed. The list shows a part of the results.
TEST_READOUT: normalized growth

Recorded normalized growth, per entry:
Looking up CC1(C)CC2C1CCC1(C)OC1CCC2(C)O (stereo not given) , I found its normalized growth recorded as 1.02 (inactive)

Looking up Nc1nccs1 , I found its normalized growth recorded as 0.958 (inactive)

Looking up C[C@](N)(Cc1ccc(O)c(O)c1)C(=O)O , I found its normalized growth recorded as 0.882 (inactive)

Looking up C=CCc1cc(OC)c2c(c1OC)OCO2 , I found its normalized growth recorded as 0.987 (inactive)

Working through the 5 molecules below one at a time, give normalized growth for each.
1. CCOC(=O)C(C)(N)Cc1ccc(O)c(O)c1 (stereo not given)
2. CC12CCCC(O)(C1)C1CC(C)(C)C1CC2 (stereo not given)
3. Nc1ccc(S(=O)(=O)Nc2nccs2)cc1
4. O=C(NC(=O)c1c(F)cccc1F)Nc1cc(Cl)c(OC(F)(F)C(F)C(F)(F)F)cc1Cl (stereo not given)
5. CC1(C)O[C@@H]2CC3C4CCC5=CC(=O)C=C[C@]5(C)C4[C@@H](O)C[C@]3(C)[C@]2(C(=O)CO)O1 (stereo not given in full)

1: 0.886 (inactive); 2: 0.892 (inactive); 3: 1.03 (inactive); 4: 0.976 (inactive); 5: 0.998 (inactive)

Looking up CC[C@@]1(C2O[C@@H](C3O[C@@](O)(CC)[C@H](C)C[C@@H]3C)C[C@@H]2C)CC[C@H]([C@]2(C)CCC3(C[C@H](O)[C@@H](C)[C@@H]([C@H](C)[C@@H](OC)[C@H](C)C(=O)O)O3)O2)O1 (stereo not given in full) , I found its normalized growth recorded as 1.08 (inactive)

----------
experiment: chemical genetic growth profiling, strain panel (AID 1159580);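 also: tested at 20 µM; growth read once vehicle control cultures reached saturation at 30 °C; 1 = growth at the plate median or of vehicle wells; lower values mean less growth of the strain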; conditions: S. cerevisiae deletion strains, growth OD, locus YNL209W, strain ssb2, stronger effect = lower value
About 2,000 (36%) of roughly 5,500 compounds were called active. Not shown: some 18% with an inconclusive outcome. The list shows a part of the results.
TEST_READOUT: normalized growth

Looking up CC[C@@H]1[C@@H](O)N2C3C[C@H]1C1C(O)[C@]4(C[C@@H]12)c1ccccc1N(C)[C@@H]34 (stereo not given in full) , I found its normalized growth recorded as 1.04 (inactive)

Looking up CC1=C(/C=C/C(C)=C/C=C/C(C)=C/C(=O)O)C(C)(C)CCC1 , I found its normalized growth recorded as 0.973 (inactive)

Looking up CCCN(CCC)C(=O)C(CCC(=O)O)NC(=O)c1ccccc1 (stereo not given) , I found its normalized growth recorded as 0.979 (inactive)

Looking up CC1=C(/C=C/C(C)=C/C=C/C(C)=C\C(=O)O)C(C)(C)CCC1 , I found its normalized growth recorded as 0.988 (inactive)

Kindly review the next compound as well.
Looking up O=C(O)CCC(=O)c1ccc(-c2ccccc2)cc1 , I found its normalized growth recorded as 0.993 (inactive)

----------
experiment: chemical genetic growth profiling, strain panel (AID 1159580);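 also: tested at 20 µM; growth read once vehicle control cultures reached saturation at 30 °C; 1 = growth at the plate median or of vehicle wells; lower values mean less growth of the strain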; conditions: S. cerevisiae deletion strains, growth OD, locus YOR083W, strain WHI5 (second series), stronger effect = lower value
About 2,000 (36%) of roughly 5,500 compounds were called active. Another 18% or so got no clear call; they are omitted. The list shows a part of the results.
Give normalized growth for every item shown.

Recorded normalized growth, per entry:
Looking up OC1CCCCC1N1CCC(c2ccccc2)CC1 (stereo unspecified) , I found its normalized growth recorded as 1 (inactive)

Looking up Cn1ccc2cc3c(cc21)CCN3C(=O)Nc1cccnc1 , I found its normalized growth recorded as 0.969 (inactive)

Looking up Nc1nc(N)c2nc(CNc3ccc(C(=O)NC(CCC(=O)O)C(=O)O)cc3)cnc2n1 (stereo unspecified) , I found its normalized growth recorded as 1 (inactive)

Looking up CN1CCc2cccc3c2C1Cc1ccc(O)c(O)c1-3 (stereo unspecified) , I found its normalized growth recorded as 0.815 (active)

Looking up CC(COc1ccccc1)N(CCCl)Cc1ccccc1 (stereo unspecified) , I found its normalized growth recorded as 0.987 (inactive)

Working through the 2 molecules below one at a time, give normalized growth for each.
1. CCN(CCCl)Cc1ccccc1Br
2. CC1=C(C(=O)O)N2C(=O)[C@@H](NC(=O)C(N)C3=CCC=CC3)[C@H]2SC1 (stereo partly specified)

1: 0.968 (inactive); 2: 1.04 (inactive)

Working through the 4 molecules below one at a time, give normalized growth for each.
1. O=C(O)CC[C@@H](NC(=O)c1ccccc1C(=O)O)C(=O)O
2. C=CCN1CC[C@]23c4c5ccc(O)c4O[C@@H]2/C(=N\N=C2\CC[C@@]4(O)C6Cc7ccc(O)c8c7[C@@]4(CCN6CC=C)[C@@H]2O8)CC[C@@]3(O)C1C5
3. COc1ccccc1N1CCNCC1
4. C=CCN1CCc2cccc3c2[C@H]1Cc1ccc(O)c(O)c1-3

["1.02 (inactive)", "1.02 (inactive)", "1 (inactive)", "0.712 (active)"]

----------
assay: chemical genetic growth profiling, strain panel (AID 1159580);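 also: tested at 20 µM; growth read once vehicle control cultures reached saturation at 30 °C; 1 = growth at the plate median or of vehicle wells; lower values mean less growth of the strain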; conditions: S. cerevisiae deletion strains, growth OD, locus YLR221C, strain rsa3
The campaign covered roughly 5,500 compounds. About 2,000 (36%) were called active. About 18% were inconclusive and are not listed. Cut-off read from the data, not from the text of the source: active = normalized growth mostly below about 0.91 (no sharp cut-off); inconclusive = no clear call, values can overlap the other calls; inactive = mostly above about 0.92. The list shows a part of the results.
Output constraint: value belongs to active, inactive

Hi team, can someone confirm the assay call for CC[C@]12CCCN3CCc4c(n(c5ccccc45)C(=O)C1)[C@@H]32 ? inactive

Hi team, can someone confirm the assay call for COc1ccc(-c2cc(C(F)F)nn2-c2ccc(S(N)(=O)=O)cc2)cc1F ? inactive

Hi team, can someone confirm the assay call for COc1ccc(CN(CCN(C)C)c2ncccn2)cc1 ? inactive

Hi team, can someone confirm the assay call for CCn1cc(C(=O)O)c(=O)c2cc3c(cc21)OCO3 ? inactive

Hi team, can someone confirm the assay call for O=C(O)c1cc(=O)c(O)c2c(O)c(O)ccc2c1 ? inactive

Hi team, can someone confirm the assay call for O=C(O)c1cc(O)c(O)c(O)c1 ? inactive

Moving on to the next molecule.
Hi team, can someone confirm the assay call for O=C(NC(Cc1cc(=O)[nH]c2ccccc12)C(=O)O)c1ccc(Cl)cc1 (configuration not stated) ? inactive
